- protocol_details: Solubility measurements in various solvents (visual inspection of dissolution)
- Type: physicochemical
- condition: 2-methyl tetrahydrofuran (2-MeTHF), organic solvent or mixture, thermodynamic from solid
- Procedure: The mass of a sample of Compound of Formula (I) was determined, and to that sample was added an aliquot of solvent, as shown in Table 5. Visual inspection was used to determine whether dissolution occurred. The solubility of Compound of Formula (I) in each solvent was calculated by dividing the weight of the sample by the total amount of solvent used to dissolve the sample. Table 6 lists the solubility of Compound of Formula (I) in each solvent.
endpoint_label: solubility

NCCOCCOCCNc1ccc2c3c(cccc13)C(=O)N(CCOCCOCCN1C(=O)c3cccc4c(NCCOCCOCCN)ccc(c34)C1=O)C2=O [Compound of Formula (I)] : < 1000 µg/mL

* * *

- protocol_details: Solubility measurements in various solvents (visual inspection of dissolution)
- Format: physicochemical
- condition: organic solvent or mixture, thermodynamic from solid; methanol (MeOH)
endpoint_label: solubility

NCCOCCOCCNc1ccc2c3c(cccc13)C(=O)N(CCOCCOCCN1C(=O)c3cccc4c(NCCOCCOCCN)ccc(c34)C1=O)C2=O : < 1000 µg/mL

* * *

- protocol_details: Solubility measurements in various solvents (visual inspection of dissolution)
- Assay type: physicochemical
- condition: organic solvent or mixture, thermodynamic from solid; 2-propanol (2-PrOH)
endpoint_label: solubility

NCCOCCOCCNc1ccc2c3c(cccc13)C(=O)N(CCOCCOCCN1C(=O)c3cccc4c(NCCOCCOCCN)ccc(c34)C1=O)C2=O : < 1 mg/mL

* * *

- protocol_details: Solubility measurements in various solvents (visual inspection of dissolution)
- Assay type: physicochemical
- condition: organic solvent or mixture, thermodynamic from solid; acetonitrile (CAN)
endpoint_label: solubility

NCCOCCOCCNc1ccc2c3c(cccc13)C(=O)N(CCOCCOCCN1C(=O)c3cccc4c(NCCOCCOCCN)ccc(c34)C1=O)C2=O : < 1000 µg/mL

* * *

- protocol_details: Solubility measurements in various solvents (visual inspection of dissolution)
- Format: physicochemical
- condition: acetone/water (95/5, v/v), organic solvent or mixture, thermodynamic from solid
endpoint_label: solubility

NCCOCCOCCNc1ccc2c3c(cccc13)C(=O)N(CCOCCOCCN1C(=O)c3cccc4c(NCCOCCOCCN)ccc(c34)C1=O)C2=O : < 1000 µg/mL

* * *

- protocol_details: Solubility measurements in various solvents (visual inspection of dissolution)
- Format: physicochemical
- condition: dichloromethane (DCM), organic solvent or mixture, thermodynamic from solid
endpoint_label: solubility

NCCOCCOCCNc1ccc2c3c(cccc13)C(=O)N(CCOCCOCCN1C(=O)c3cccc4c(NCCOCCOCCN)ccc(c34)C1=O)C2=O [Compound of Formula (I)] : < 1000 µg/mL

* * *

- protocol_details: Solubility measurements in various solvents (visual inspection of dissolution)
- Format: physicochemical
- condition: methyl ethyl ketone (MEK), organic solvent or mixture, thermodynamic from solid
endpoint_label: solubility

NCCOCCOCCNc1ccc2c3c(cccc13)C(=O)N(CCOCCOCCN1C(=O)c3cccc4c(NCCOCCOCCN)ccc(c34)C1=O)C2=O [Compound of Formula (I)] : < 1000 µg/mL

* * *

- protocol_details: Solubility measurements in various solvents (visual inspection of dissolution)
- Type: physicochemical
- condition: tetrahydrofuran (THF), organic solvent or mixture, thermodynamic from solid
endpoint_label: solubility

NCCOCCOCCNc1ccc2c3c(cccc13)C(=O)N(CCOCCOCCN1C(=O)c3cccc4c(NCCOCCOCCN)ccc(c34)C1=O)C2=O : < 1000 µg/mL
